system: ATP; experiment: switch fluorescence ratio, 500 uM ATP over buffer (Cy3 cluster intensity, sum of 5 cycles each) (fold (ratio)); higher = stronger signal-on switching upon ATP binding; sequences stand for … in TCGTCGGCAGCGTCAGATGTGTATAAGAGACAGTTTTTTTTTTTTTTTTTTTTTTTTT…TC; settings: aptamer strand: ATP DNA aptamer (quencher-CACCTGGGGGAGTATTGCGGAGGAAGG + anchor), 100 nM annealed; ATP concentration: 500 uM;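 note: ATP exposure 15 min at 22 °C before imaging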
Quantity measured: switch fluorescence ratio
Format: numeric value only, no unit, no commentary.

AGATTTCACT: 1.01

Now look at this one.
Item: TCAGTCATGT | switch fluorescence ratio: 0.992
